Tested on: 280 human cancer cell lines
assayText: OncoPanel cell proliferation assay (10-day)
Assay type: cell-based
protocolConditions: Homo sapiens, BT-474, BT474, Breast; read-out: Cell Count IC50
Listed here: items and their measured pIC50.
Worth noting: pIC50 values are minus log10 of concentrations stated in mol/L.

## Task Request the reported pIC50 associated with CC(C)=CCC[C@H](C)[C@@H]1CC[C@@H](C)c2c1cc(C)c(O)c2O [Compound 4, 7,8-dihydroxyserrulat-14-ene]
## Result 4.59

## Task Request the reported pIC50 associated with CC(C)=CCC[C@H](CO)[C@@H]1CC[C@@H](C)c2c1cc(C)c(O)c2O [Compound 1, 7,8,18-trihydroxyserrulat-14-ene]
## Result 5.26
